- EXPERIMENTAL_TARGET: T1, MBP-ENL (489-559) (Homo sapiens (Human)) (UniProt Q03111)
- T1 sequence: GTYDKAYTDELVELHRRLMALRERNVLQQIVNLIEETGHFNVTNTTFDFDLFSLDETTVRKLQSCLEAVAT
- ASSAY_SUMMARY: ITC; peptide (400 µM) into MBP-ENL (489-559) (80 µM)
TEST_READOUT: Kd (µM)

Ac-LPISIPLSTV-NH2 [DOT1L 10mer peptide, Ac-…-NH2 (a.a. 865-874)]
1.1
Ac-LPISIPLSTVQPNKLP-NH2 [DOT1L 16 mer peptide, Ac-…-NH2 (a.a. 865-880)]
0.9
